System: ZR751
Test: Biomarker study proliferation (CellTiter-Glo)
Type: cell-based
Conditions: Homo sapiens, ZR-75-1, 168 h, read-out: Anti-proliferation effect IC50
MEASUREMENT NAME: IC50 (nM)
Respond with the bare value in nM.

Please fill in: IC50 reported for "Cc1cc(NC2CCN(C(=O)O[C@H]3CCN(C(=O)/C=C/CN(C)C)C3)CC2)n2ncc(C(C)C)c2n1" = 43

----------
Tested on: TCCSUP
Assay: Biomarker study proliferation (CellTiter-Glo)
Assay type: cell-based
Conditions: Homo sapiens, TCC-SUP, 168 h, read-out: Anti-proliferation effect IC50
MEASUREMENT NAME: IC50 (nM)
Respond with the bare value in nM.

Form: item "Cc1cc(NC2CCN(C(=O)O[C@H]3CCN(C(=O)/C=C/CN(C)C)C3)CC2)n2ncc(C(C)C)c2n1" ; test system TCCSUP; IC50: 40

----------
Test system: SW48
Assay: Biomarker study proliferation (CellTiter-Glo)
Format: cell-based
Conditions: Homo sapiens, SW48, 168 h, read-out: Anti-proliferation effect IC50
MEASUREMENT NAME: IC50
Quick note: unit goes after the number.

Please fill in: IC50 reported for Cc1cc(NC2CCN(C(=O)O[C@H]3CCN(C(=O)/C=C/CN(C)C)C3)CC2)n2ncc(C(C)C)c2n1 [Example 1] = 5 nM

----------
Tested on: JHH4
Test: Biomarker study proliferation (CellTiter-Glo)
Type: cell-based
Settings: JHH-4, 168 h, read-out: Anti-proliferation effect IC50
MEASUREMENT NAME: IC50 (nM)
Respond with the bare value in nM.

Please fill in: IC50 reported for "Cc1cc(NC2CCN(C(=O)O[C@H]3CCN(C(=O)/C=C/CN(C)C)C3)CC2)n2ncc(C(C)C)c2n1" = 166

----------
Molecular target: CDK4/CycD1 (Homo sapiens, UniProt P11802)
Sequence (P11802 whole entry): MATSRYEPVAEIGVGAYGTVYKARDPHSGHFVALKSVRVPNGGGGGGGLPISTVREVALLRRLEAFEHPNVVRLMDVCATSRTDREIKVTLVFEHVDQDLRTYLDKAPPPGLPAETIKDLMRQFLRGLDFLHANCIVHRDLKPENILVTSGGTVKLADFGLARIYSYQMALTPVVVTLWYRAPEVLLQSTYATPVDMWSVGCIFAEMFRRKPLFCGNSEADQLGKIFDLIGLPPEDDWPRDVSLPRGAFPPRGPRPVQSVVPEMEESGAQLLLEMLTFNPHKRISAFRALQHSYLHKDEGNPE
Sequence (P24385 whole entry partner): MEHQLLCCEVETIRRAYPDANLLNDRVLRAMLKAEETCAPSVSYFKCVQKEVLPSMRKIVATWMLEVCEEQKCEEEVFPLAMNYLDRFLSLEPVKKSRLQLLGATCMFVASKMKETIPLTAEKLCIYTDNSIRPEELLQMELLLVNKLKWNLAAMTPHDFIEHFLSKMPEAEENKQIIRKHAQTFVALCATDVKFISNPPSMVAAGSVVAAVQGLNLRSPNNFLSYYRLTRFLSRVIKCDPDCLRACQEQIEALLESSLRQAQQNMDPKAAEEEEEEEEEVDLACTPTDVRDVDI
Test: ProQinase WT Profiler radiometric protein kinase assay
Conditions: non standard IC50 from 4 concentrations, kinase 3.3 nM, ATP 3 μM
MEASUREMENT NAME: IC50
Quick note: unit goes after the number.

Form: item Cc1cc(NC2CCN(C(=O)O[C@H]3CCN(C(=O)/C=C/CN(C)C)C3)CC2)n2ncc(C(C)C)c2n1 [Example 1] ; test system CDK4/CycD1 (Homo sapiens, UniProt P11802); IC50: 2830 nM

----------
System: HCC44
Test: Biomarker study proliferation (CellTiter-Glo)
Assay type: cell-based
Conditions: Homo sapiens, HCC44, 168 h, read-out: Anti-proliferation effect IC50
Experimental: Cancer cell lines are profiled to evaluate the anti-proliferative activity of a test compound in-vitro. […] After 15 minutes, luminescence is read using a plate reader. Data is analyzed in Excel and graphed in GraphPad Prism. Statistical analysis and p value is calculated using Mann-Whitney nonparameteric t tests using GraphPad Prism. […]
MEASUREMENT NAME: IC50 (nM)
Respond with the bare value in nM.

Please fill in: IC50 reported for "Cc1cc(NC2CCN(C(=O)O[C@H]3CCN(C(=O)/C=C/CN(C)C)C3)CC2)n2ncc(C(C)C)c2n1" = 131

----------
Target: CDK6/CycD1 (Homo sapiens, UniProt Q00534)
Construct: purchased ProQinase
Sequence (Q00534 whole entry, one chain of several): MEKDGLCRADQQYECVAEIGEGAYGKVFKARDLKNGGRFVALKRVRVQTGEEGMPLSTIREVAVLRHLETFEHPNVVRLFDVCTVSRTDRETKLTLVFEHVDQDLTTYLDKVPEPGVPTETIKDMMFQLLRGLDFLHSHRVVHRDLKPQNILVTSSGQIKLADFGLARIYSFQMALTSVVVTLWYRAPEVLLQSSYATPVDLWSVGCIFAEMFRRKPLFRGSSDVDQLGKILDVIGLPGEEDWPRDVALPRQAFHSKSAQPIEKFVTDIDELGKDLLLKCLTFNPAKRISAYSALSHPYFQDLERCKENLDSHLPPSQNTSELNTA
Assay: ProQinase WT Profiler radiometric protein kinase assay
Assay type: biochemical
Details: non standard IC50 from 4 concentrations, kinase 3.2 nM, ATP 3 μM
MEASUREMENT NAME: IC50 (µM)
Respond with the bare value in µM.

Please fill in: IC50 reported for "Cc1cc(NC2CCN(C(=O)O[C@H]3CCN(C(=O)/C=C/CN(C)C)C3)CC2)n2ncc(C(C)C)c2n1" = 8.08
